Where these numbers come from: patent US10508120B2

The compounds listed here are annotated with their pKd.
tested-target: human TYK2 (JH2domain-pseudokinase) (Homo sapiens (Human))
Sequence (P29597 556-888): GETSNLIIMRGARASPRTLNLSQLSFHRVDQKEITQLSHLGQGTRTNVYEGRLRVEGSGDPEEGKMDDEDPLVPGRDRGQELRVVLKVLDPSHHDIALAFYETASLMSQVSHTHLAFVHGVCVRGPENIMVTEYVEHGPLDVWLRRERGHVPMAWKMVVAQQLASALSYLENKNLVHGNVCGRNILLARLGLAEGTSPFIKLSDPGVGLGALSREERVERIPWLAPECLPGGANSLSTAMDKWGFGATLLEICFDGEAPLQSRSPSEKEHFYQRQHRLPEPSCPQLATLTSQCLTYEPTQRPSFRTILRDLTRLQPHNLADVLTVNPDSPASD
assay-remarks: TYK2 JH2 Domain Binding Assay (KINOMEscan)
pKd: −log10 of the molar value.
property: pKd

[[record]]
compound = "CNc1cc(Nc2cccn([C@H]3CC[C@H](OC)CC3)c2=O)nc2c(C(=O)N[C@H]3CC[C@H]3O)cnn12 [I-539]"
tested_target = "human TYK2 (JH2domain-pseudokinase) (Homo sapiens (Human))"
property = "pKd"
endpoint_result = "> 9.70"

[[record]]
compound = "CNc1cc(-c2nn(CCN3CCCCC3)c3ncccc23)nc2c(C(=O)N[C@H]3C[C@H]3F)cnn12 [I-458]"
tested_target = "human TYK2 (JH2domain-pseudokinase) (Homo sapiens (Human))"
property = "pKd"
endpoint_result = "9.00 to 9.70"

[[record]]
compound = "Cc1nccc(-n2cccc(Nc3cc(N)n4ncc(C(N)=O)c4n3)c2=O)n1 [I-42]"
tested_target = "human TYK2 (JH2domain-pseudokinase) (Homo sapiens (Human))"
property = "pKd"
endpoint_result = "8.00 to 9.00"

[[record]]
compound = "CNc1cc(Nc2cccn([C@H]3CCCOC3)c2=O)nc2c(C(=O)N[C@@H]3CC[C@@H](O)C3)cnn12 [I-729]"
tested_target = "human TYK2 (JH2domain-pseudokinase) (Homo sapiens (Human))"
property = "pKd"
endpoint_result = "> 9.70"

[[record]]
compound = "CNc1cc(Nc2cccn([C@@H]3CC[C@H]3O)c2=O)nc2c(C(=O)N[C@H]3CC[C@@H]3OC)cnn12 [I-1093]"
tested_target = "human TYK2 (JH2domain-pseudokinase) (Homo sapiens (Human))"
property = "pKd"
endpoint_result = "> 9.70"

[[record]]
compound = "CNc1cc(Nc2cccn(-c3cccc(F)c3)c2=O)nc2c(C(=O)N[C@H]3COC[C@H]3O)cnn12 [I-1304]"
tested_target = "human TYK2 (JH2domain-pseudokinase) (Homo sapiens (Human))"
property = "pKd"
endpoint_result = "9.00 to 9.70"

[[record]]
compound = "CNc1cc(-c2cn(CCN3CCN(C)CC3)c3ncccc23)nc2c(C(=O)N[C@H]3C[C@H]3F)cnn12 [I-617]"
tested_target = "human TYK2 (JH2domain-pseudokinase) (Homo sapiens (Human))"
property = "pKd"
endpoint_result = "> 9.70"

[[record]]
compound = "CNc1cc(Nc2cccn(-c3nc(C)co3)c2=O)nc2c(C(=O)NCC(C)CO)cnn12 (centres unmarked) [I-663]"
tested_target = "human TYK2 (JH2domain-pseudokinase) (Homo sapiens (Human))"
property = "pKd"
endpoint_result = "> 9.70"

[[record]]
compound = "CNc1cc(Nc2cccn([C@@H]3C[C@H]3F)c2=O)nc2c(C(=O)NCC3(CO)CC3)cnn12 [I-1122]"
tested_target = "human TYK2 (JH2domain-pseudokinase) (Homo sapiens (Human))"
property = "pKd"
endpoint_result = "9.00 to 9.70"

[[record]]
compound = "Cc1cc(-n2cccc(Nc3cc(N)n4ncc(C(N)=O)c4n3)c2=O)no1 [I-64]"
tested_target = "human TYK2 (JH2domain-pseudokinase) (Homo sapiens (Human))"
property = "pKd"
endpoint_result = "9.00 to 9.70"

[[record]]
compound = "CNc1cc(-c2cn(C(C)C)c3ncccc23)nc2c(C(=O)N[C@H]3CC[C@H]3O)cnn12 [I-637]"
tested_target = "human TYK2 (JH2domain-pseudokinase) (Homo sapiens (Human))"
property = "pKd"
endpoint_result = "> 9.70"

[[record]]
compound = "CNc1cc(-c2cn([C@@H]3CCCOC3)c3ncccc23)nc2c(C(=O)N[C@@H]3CC[C@H]3OC)cnn12 [I-1267]"
tested_target = "human TYK2 (JH2domain-pseudokinase) (Homo sapiens (Human))"
property = "pKd"
endpoint_result = "> 9.70"

[[record]]
compound = "CNc1cc(Nc2cccn(-c3ccc(C)nc3)c2=O)nc2c(C(=O)N[C@@H]3CCC[C@@H](OC)C3)cnn12 [I-1189]"
tested_target = "human TYK2 (JH2domain-pseudokinase) (Homo sapiens (Human))"
property = "pKd"
endpoint_result = "> 9.70"

[[record]]
compound = "CNc1cc(Nc2cccn(-c3ccc(N4CCOCC4)cn3)c2=O)nc2c(C(=O)NC3CCC3)cnn12 [I-163]"
tested_target = "human TYK2 (JH2domain-pseudokinase) (Homo sapiens (Human))"
property = "pKd"
endpoint_result = "9.00 to 9.70"

[[record]]
compound = "CNc1cc(Nc2cccn(CCOC3CC3)c2=O)nc2c(C(=O)N[C@@H]3CC[C@@H]3O)cnn12 [I-516]"
tested_target = "human TYK2 (JH2domain-pseudokinase) (Homo sapiens (Human))"
property = "pKd"
endpoint_result = "8.00 to 9.00"

[[record]]
compound = "[2H]C([2H])([2H])Oc1ncccc1Nc1cc(NC)n2ncc(C(=O)N[C@H]3CCC[C@H](O)C3)c2n1 [I-498]"
tested_target = "human TYK2 (JH2domain-pseudokinase) (Homo sapiens (Human))"
property = "pKd"
endpoint_result = "> 9.70"

[[record]]
compound = "CNc1cc(Nc2cccn(CCOC)c2=O)nc2c(C(=O)NC3CCC3)cnn12 [I-269]"
tested_target = "human TYK2 (JH2domain-pseudokinase) (Homo sapiens (Human))"
property = "pKd"
endpoint_result = "> 9.70"

[[record]]
compound = "CNc1cc(Nc2cccn(-c3cccc(C(C)(C)O)n3)c2=O)nc2c(C(=O)NC3CCC3)cnn12 [I-156]"
tested_target = "human TYK2 (JH2domain-pseudokinase) (Homo sapiens (Human))"
property = "pKd"
endpoint_result = "> 9.70"

[[record]]
compound = "CNc1cc(Nc2cccn([C@@H]3CCCOC3)c2=O)nc2c(C(=O)N[C@@H]3COC[C@@H]3O)cnn12 [I-787]"
tested_target = "human TYK2 (JH2domain-pseudokinase) (Homo sapiens (Human))"
property = "pKd"
endpoint_result = "< 8.00"

[[record]]
compound = "CNc1cc(Nc2cccn(C(C)C)c2=O)nc2c(C(=O)N[C@@H]3CC[C@]3(C)O)cnn12 [I-1370]"
tested_target = "human TYK2 (JH2domain-pseudokinase) (Homo sapiens (Human))"
property = "pKd"
endpoint_result = "8.00 to 9.00"

